The measured values listed here are drawn from patent US11286226B2.

# ASSAY_OVERVIEW: Cell viability at 1 mM (CellTiter-GLO), MCF10A
# Format: cell-based
# CONDITION_CONTEXT: human, MCF10A cells (normal breast); 1.0 mM in DMSO, 48 h, MCF10A; read-out: Percent Cell Viability of Treated Cell Lines at 1.0 mM, MCF10A
# Description: Normal breast cell line MCF10A was cultured in DMEM/F12 with 5% horse serum, 20 ng/mL EGF, […], 100 ng/mL cholera toxin, 10 μg/mL insulin, and 1% pen/strep. […] 48 hours following treatment, cell proliferation was evaluated using the CellTiter-GLO Luminescent Cell Viability Assay (Promega, Madison, Wis.). […] Luminescence was measured using a Syngergy H1-M microplate reader (BioTek Instruments, Inc.).
Measured viability at 48 h, 1 mM of individual entries
MEASURE_NAME: viability at 48 h, 1 mM (%)

[
  {
    "COMPOUND": "O=C1C2O[C@@H]2C[C@H]2C=C[C@@H]3CC4O[C@H]4C(=O)[C@H]3[C@H]12 (some centres unmarked) [Compound 32]",
    "OUTPUT_UNIT": "%",
    "OBSERVED_VALUE": 70
  },
  {
    "COMPOUND": "O=C1C=CC[C@H]2C=C[C@@H]3CC=CC(=O)[C@H]3[C@H]12 [Compound 13]",
    "OUTPUT_UNIT": "%",
    "OBSERVED_VALUE": 1
  },
  {
    "COMPOUND": "CC1=CC[C@H]2C(C)=CCC3(CCC=CC3=O)[C@@H]2C1=O (some centres unmarked) [Compound 24]",
    "OUTPUT_UNIT": "%",
    "OBSERVED_VALUE": 4
  },
  {
    "COMPOUND": "CC1=CC[C@@H]2C(C)=C[C@@H]3[C@H](C(=O)C=CC3(C)C)[C@H]2C1=O [Compound 21]",
    "OUTPUT_UNIT": "%",
    "OBSERVED_VALUE": 4
  },
  {
    "COMPOUND": "O=C1C=CC[C@@H]2[C@@H]1[C@@H]1C(=O)C=CC[C@H]1C1O[C@H]12 (some centres unmarked) [Compound 31]",
    "OUTPUT_UNIT": "%",
    "OBSERVED_VALUE": 5
  }
]
